Please respond with reported pIC50 for every item in the list.
Value format note: pIC50 is -log10 of concentration (mol/L); just state the number.

CC(C)Nc1c(C(=O)N[C@H]2CC[C@H](N)CC2)cnc2ccc(-c3cn[nH]c3)cc12 tested on IRAK4 (Homo sapiens (Human), UniProt Q9NWZ3) gave pIC50: 8.14

Observed pIC50 on IRAK4 (Homo sapiens (Human), UniProt Q9NWZ3), entry COC(=O)N[C@H]1C[C@H](NC(=O)c2cnc3ccc(-c4cn[nH]c4)cc3c2NC(C)C)C1 , equals 8.04

Short answer on IRAK4 (Homo sapiens (Human), UniProt Q9NWZ3) for CNC(=O)CCNC(=O)c1cnc2ccc(-c3cn[nH]c3)cc2c1NC(C)C , pIC50: 7.51

The compound CC(C)Nc1c(C(=O)NCC(C)(C)CO)cnc2ccc(-c3cn[nH]c3)cc12 , when measured on IRAK4 (Homo sapiens (Human), UniProt Q9NWZ3), yielded pIC50 of 7.02

# value of pIC50, IRAK4 (Homo sapiens (Human), UniProt Q9NWZ3), item CC(O)CCNC(=O)c1cnc2ccc(-c3cn[nH]c3)cc2c1NCC(F)F (stereo not drawn) = 7.55

The compound CC(C)Nc1c(C(=O)NC[C@@H](F)C(C)(C)O)cnc2ccc(-c3cccnc3)cc12 , tested on IRAK4 (Homo sapiens (Human), UniProt Q9NWZ3), showed pIC50 of 7.34

Field pIC50 (IRAK4 (Homo sapiens (Human), UniProt Q9NWZ3)), entry CC(C)CCNC(=O)c1cnc2ccc(-c3cn[nH]c3)nc2c1NC(C)C : 8.57

Fill in: IRAK4 (Homo sapiens (Human), UniProt Q9NWZ3) pIC50 for O=C(NCCC(F)(F)F)c1cnc2ccc(-c3cn[nH]c3)cc2c1NC1CC(F)(F)C1 = 7.27

// returns pIC50 for CC(=O)N[C@H]1CC[C@H](NC(=O)c2cnc3ccc(-c4cn[nH]c4)nc3c2NC(C)C)CC1 with IRAK4 (Homo sapiens (Human), UniProt Q9NWZ3); value = 8.48

Item: CC(C)Nc1c(C(=O)NCCC(=O)N(C)C)cnc2ccc(-c3cn[nH]c3)cc12 | System: IRAK4 (Homo sapiens (Human), UniProt Q9NWZ3) | pIC50: 7.53

With IRAK4 (Homo sapiens (Human), UniProt Q9NWZ3) as the test system, CC(C)Nc1c(C(=O)NCc2nnc[nH]2)cnc2ccc(-c3cn[nH]c3)cc12 showed pIC50 of 8.12

The value of pIC50 recorded for CC(C)(O)CCNC(=O)c1cnc2ccc(-c3cn[nH]c3)cc2c1NC1COC1 when tested on IRAK4 (Homo sapiens (Human), UniProt Q9NWZ3) reads 7.47

Log: IRAK4 (Homo sapiens (Human), UniProt Q9NWZ3), compound CC1(Nc2c(C(=O)NC[C@@H](F)C(C)(C)O)cnc3ccc(-c4cn[nH]c4)cc23)CC1 , pIC50 = 8.57

Lab entry: IRAK4 (Homo sapiens (Human), UniProt Q9NWZ3) assay, compound CNc1c(C(N)=O)cnc2ccc(-c3cncs3)cc12 , pIC50 = 5.81

// assay IRAK4 (Homo sapiens (Human), UniProt Q9NWZ3), entry O=C(NCCN1CCS(=O)(=O)CC1)c1cnc2ccc(-c3cn[nH]c3)cc2c1NC1CC1 , pIC50 value = 8.31

Record CC(C)Nc1c(C(=O)NC2CCN(C(=O)N3CCOCC3)CC2)cnc2ccc(-c3cn[nH]c3)cc12 / IRAK4 (Homo sapiens (Human), UniProt Q9NWZ3), pIC50 recorded as 8.05

Field pIC50 (IRAK4 (Homo sapiens (Human), UniProt Q9NWZ3)), entry CC(C)Nc1c(C(=O)NCCC(F)(F)F)cnc2ccc(-c3cn[nH]c3)nc12 : 8.19

pIC50 of CC(C)Nc1c(C(=O)NCCCc2csc(N)n2)cnc2ccc(-c3cn[nH]c3)cc12 , assay on IRAK4 (Homo sapiens (Human), UniProt Q9NWZ3), is 8.24

Lab note: compound CC(C)Nc1c(C(=O)NCCc2c[nH]cn2)cnc2ccc(-c3cn[nH]c3)cc12 tested on IRAK4 (Homo sapiens (Human), UniProt Q9NWZ3); recorded pIC50 was 7.64

Let me check: CC(C)Nc1c(C(=O)NCCN2CCOCC2)cnc2ccc(-c3cn[nH]c3)cc12 , system IRAK4 (Homo sapiens (Human), UniProt Q9NWZ3), measured pIC50 is 8.01

Let me check: CC(C)Nc1c(C(=O)NCCC(C)(C)O)cnc2ccc(-c3cn[nH]c3)nc12 , system IRAK4 (Homo sapiens (Human), UniProt Q9NWZ3), measured pIC50 is 8.57

pIC50 value, target or system IRAK4 (Homo sapiens (Human), UniProt Q9NWZ3), for CC(C)Nc1c(C(=O)NC2CCN(S(=O)(=O)c3cccnc3)CC2)cnc2ccc(-c3cn[nH]c3)cc12 : 7.77

Item COC(=O)NC1CC(NC(=O)c2cnc3ccc(-c4cn[nH]c4)cc3c2NC2CC(F)(F)C2)C1 (stereo not drawn) ; assay system IRAK4 (Homo sapiens (Human), UniProt Q9NWZ3); pIC50 reported as 7.52

Record CC(C)Nc1c(C(=O)NC[C@@H](F)C(C)(C)O)cnc2ccc(-c3cncnc3)cc12 / IRAK4 (Homo sapiens (Human), UniProt Q9NWZ3), pIC50 recorded as 7.50

GET /values?item= CC(C)Nc1c(C(=O)NC2CCN(S(C)(=O)=O)CC2)cnc2ccc(-c3cn[nH]c3)cc12 &system= IRAK4 (Homo sapiens (Human), UniProt Q9NWZ3) returns pIC50: 8.24

Record CC(C)Nc1c(C(=O)NCCC2CCNC2)cnc2ccc(-c3cn[nH]c3)cc12 (stereo not drawn) / IRAK4 (Homo sapiens (Human), UniProt Q9NWZ3), pIC50 recorded as 8.01

Entry CC(C)Nc1c(C(=O)N[C@H]2CC[C@H](n3ccnn3)CC2)cnc2ccc(-c3cn[nH]c3)cc12 under IRAK4 (Homo sapiens (Human), UniProt Q9NWZ3) had pIC50 of 8.39

Here CC(C)Nc1c(C(=O)NCCc2ccncc2)cnc2ccc(-c3cn[nH]c3)cc12 was tested on IRAK4 (Homo sapiens (Human), UniProt Q9NWZ3), and its pIC50 came to 8.36

For CC(C)Nc1c(C(=O)NCCC(C)(C)N)cnc2ccc(-c3cn[nH]c3)nc12 on IRAK4 (Homo sapiens (Human), UniProt Q9NWZ3), measured pIC50 was 8.27

Note to self: pIC50 of CC(C)Nc1c(C(=O)NCCC2CCCN2C(=O)C2CC2)cnc2ccc(-c3cn[nH]c3)cc12 (stereo not drawn) with IRAK4 (Homo sapiens (Human), UniProt Q9NWZ3) was 7.53

Record CC(C)Nc1c(C(=O)NCCC(=O)N2CCCC2)cnc2ccc(-c3cn[nH]c3)cc12 / IRAK4 (Homo sapiens (Human), UniProt Q9NWZ3), pIC50 recorded as 7.49

The compound CC(=O)N[C@H]1CC[C@H](NC(=O)c2cnc3ccc(-c4cncs4)nc3c2NC(C)C)CC1 , when measured on IRAK4 (Homo sapiens (Human), UniProt Q9NWZ3), yielded pIC50 of 8.37

Entry CC(C)Nc1c(C(=O)NCCC(C)(C)O)cnc2ccc(-c3ccc(=O)[nH]c3)cc12 , IRAK4 (Homo sapiens (Human), UniProt Q9NWZ3) data, pIC50 value: 6.91

----------
Molecular target: IRAK4 (Homo sapiens (Human))
Sequence (Q9NWZ3 whole entry, species assumed): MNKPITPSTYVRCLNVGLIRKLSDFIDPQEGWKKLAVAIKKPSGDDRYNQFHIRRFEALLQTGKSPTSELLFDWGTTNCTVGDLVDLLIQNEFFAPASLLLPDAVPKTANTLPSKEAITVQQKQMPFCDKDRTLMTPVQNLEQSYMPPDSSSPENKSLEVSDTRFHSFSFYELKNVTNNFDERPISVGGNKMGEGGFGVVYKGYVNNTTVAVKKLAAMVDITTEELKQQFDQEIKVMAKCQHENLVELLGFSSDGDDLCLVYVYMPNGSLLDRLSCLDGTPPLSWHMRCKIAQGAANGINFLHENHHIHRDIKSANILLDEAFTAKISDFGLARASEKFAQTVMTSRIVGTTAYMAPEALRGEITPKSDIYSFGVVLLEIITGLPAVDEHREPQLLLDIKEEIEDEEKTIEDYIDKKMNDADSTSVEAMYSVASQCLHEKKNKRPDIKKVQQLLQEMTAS
Assignment: determine reported IC50 for the given compounds.

Input CC(C)Nc1c(C(=O)NCCC(C)(C)O)cnc2ccc(-c3ccc(F)nc3)cc12 . Output IC50: 119 nM

Query CC(=O)N[C@H]1CC[C@H](NC(=O)c2cnc3ccc(-c4ccnc(C#N)c4)nc3c2NC(C)C)CC1 yields IC50 of 78 nM

Notebook: CC(C)Nc1c(C(=O)NCC2CCS(=O)(=O)CC2)cnc2ccc(-c3cn[nH]c3)cc12 , IC50 read as 21 nM

Lookup result for CC(C)(O)CCNC(=O)c1cnc2ccc(-c3cn[nH]c3)cc2c1NC1CC(F)(F)C1 ; measured IC50: 23.9 nM

# compound COC(=O)N[C@H]1CC[C@H](NC(=O)c2cnc3ccc(-c4cn[nH]c4)cc3c2NC(C)C)CC1 ; its IC50 = 3.3 nM

Per the records, this compound ( CC(C)Nc1c(-c2cn(C3CN(CC(F)F)C3)nn2)cnc2ccc(-c3cn[nH]c3)cc12 ) has IC50 equal to 6.3 nM

# IC50 (compound: CC(C)(O)CCNc1c(C(N)=O)cnc2ccc(-c3cn[nH]c3)cc12 ) is 264 nM

Per the record, CC(C)Nc1c(C(=O)NC(C)(C)C(=O)N2CCOCC2)cnc2ccc(-c3cn[nH]c3)cc12 has IC50 of 1810 nM

For CC(C)Nc1c(C(=O)NCC2(CO)COC2)cnc2ccc(-c3cn[nH]c3)cc12 the compound record lists IC50 as 48.9 nM

Reported IC50 of CC(C)Nc1c(C(=O)NCCC2CC2)cnc2ccc(-c3cncs3)nc12 : 16.4 nM

Documented IC50 of CC(C)CCNC(=O)c1cnc2ccc(-c3cn[nH]c3)cc2c1NC(C)C : 7.7 nM

# IC50 of CC(C)(O)CCNC(=O)c1cnc2ccc(-c3cn[nH]c3)cc2c1NCC(F)F = 22.3 nM

What the record says about CC(O)CCNC(=O)c1cnc2ccc(-c3cn[nH]c3)cc2c1NC1CC(F)(F)C1 (centres unmarked) : IC50 is 32.6 nM

CC(C)Nc1c(C(=O)NCCC(F)F)cnc2ccc(-c3cn[nH]c3)cc12 yielded IC50 of 9.1 nM

For record Cc1cc(-c2ccc3ncc(C(=O)NCCC(C)(C)O)c(NC(C)C)c3c2)cnc1F the listed IC50 is 307 nM

The recorded IC50 for entry CC(C)Nc1c(C(=O)NCCC(C)(C)O)cnc2ccc(-c3ccc(C#N)nc3)cc12 equals 131 nM

Consider CC(C)Nc1c(C(=O)NCCc2ncno2)cnc2ccc(-c3cn[nH]c3)cc12 . Its measured IC50 is 118 nM
